System: human normal colon epithelial cells (NCM-460)
Assay type: cell-based
Conditions: 48 h
Where no end group is shown, it is not given here.

{"columns": ["RESIDUE STRING", "UNITS SYMBOL", "Cytotoxicity CC50"],
 "data": [
  ["MRCSLKKIISTFFS [Cand-71]", "µg/mL", 23.841],
  ["MKKCRRKVLFGLWRRN [Cand-77]", "µg/mL", 45.263],
  ["MRIVMCRIGGRL [Cand-102]", "µg/mL", 5.897],
  ["MSRSLRNLLKYVWVKVKGE [Cand-217]", "µg/mL", 25.740],
  ["MVAVMKKLLLKYALK [Cand-82]", "µg/mL", 10.864]
]}
